- assay text: pharmacokinetics in female CD1 mice, plasma by UPLC-MS/MS
- Format: in vivo
- test parameters: mouse, plasma, iv, 1 mg/kg, I.V. 1 mg/kg, first study without NaF; read-out: terminal half-life (converted)
readout kind: half-life
Value and unit, in that order.

Any idea what half-life was measured for CCC(=C(c1ccc(O)cc1)c1ccc(OCCN(C)C(=O)COCCOCCNC(=O)Cc2ccc3c(c2)CN(C2CCC(=O)NC2=O)C3=O)cc1)c1ccccc1 (stereo not shown) [TC-Pr-009] ?
1 h

###

- assay text: pharmacokinetics in female CD1 mice, plasma by UPLC-MS/MS
- Type: in vivo
- test parameters: mouse, plasma; oral 10 mg/kg vs IV 1 mg/kg; read-out: Oral bioavailability
- Description: ENDX PROTAC 7 and PROTAC 9 pharmacokinetics were characterized in female CD1 mice. Blood samples were collected from mice anesthetized under isoflurane via retro-orbital eye bleed into tubes containing EDTA and immediately chilled on ice. […] For IV dosing, ENDX PROTAC 9 was dissolved in 10% DMSO, 10% PEG 400, and 80% normal saline for a final concentration of 0.2 mg/mL ENDX PROTAC 9 for the 1 mg/kg IV doses. […] Plasma concentrations of ENDX PROTAC 7 and 9 were measured using UPLC-MS/MS.
readout kind: bioavailability (%)
Your answer should be a plain number; it is taken to be in %.

Any idea what bioavailability was measured for CCC(=C(c1ccc(O)cc1)c1ccc(OCCN(C)C(=O)COCCOCCNC(=O)Cc2ccc3c(c2)CN(C2CCC(=O)NC2=O)C3=O)cc1)c1ccccc1 (stereo not shown) ?
8.8

###

- assay text: pharmacokinetics in female CD1 mice, plasma by UPLC-MS/MS
- Format: in vivo
- test parameters: mouse, plasma, ip; I.P. 4 mg/kg; read-out: bioavailability of the I.P. dose
readout kind: bioavailability (%)
Your answer should be a plain number; it is taken to be in %.

Any idea what bioavailability was measured for CCC(=C(c1ccc(O)cc1)c1ccc(OCCN(C)C(=O)COCCOCCNC(=O)Cc2ccc3c(c2)CN(C2CCC(=O)NC2=O)C3=O)cc1)c1ccccc1 (stereo not shown) ?
225

###

- assay text: pharmacokinetics in female CD1 mice, plasma by UPLC-MS/MS
- Format: in vivo
- test parameters: mouse, plasma, po, 10 mg/kg, plasma, PO 10 mg/kg, 480 minutes, individual mice; read-out: Concentration ENDX PROTAC 9
readout kind: concentration at 8 h (ng/mL)
Your answer should be a plain number; it is taken to be in ng/mL.

Any idea what concentration at 8 h was measured for CCC(=C(c1ccc(O)cc1)c1ccc(OCCN(C)C(=O)COCCOCCNC(=O)Cc2ccc3c(c2)CN(C2CCC(=O)NC2=O)C3=O)cc1)c1ccccc1 (stereo not shown) ?
0.08

###

- assay text: pharmacokinetics in female CD1 mice, plasma by UPLC-MS/MS
- Type: in vivo
- test parameters: mouse, plasma, po, 10 mg/kg, oral 10 mg/kg; read-out: average peak plasma concentration
readout kind: Cmax (ng/mL)
Your answer should be a plain number; it is taken to be in ng/mL.

Any idea what Cmax was measured for CCC(=C(c1ccc(O)cc1)c1ccc(OCCN(C)C(=O)COCCOCCNC(=O)Cc2ccc3c(c2)CN(C2CCC(=O)NC2=O)C3=O)cc1)c1ccccc1 (stereo not shown) ?
11.1

###

- assay text: pharmacokinetics in female CD1 mice, plasma by UPLC-MS/MS
- Type: in vivo
- test parameters: mouse, plasma, iv, 1 mg/kg, plasma, IV 1 mg/kg, EDTA without NaF, 30 minutes, individual mice; read-out: Concentration ENDX PROTAC 9
- Procedure: ENDX PROTAC 7 and PROTAC 9 pharmacokinetics were characterized in female CD1 mice. Blood samples were collected from mice anesthetized under isoflurane via retro-orbital eye bleed into tubes containing EDTA and immediately chilled on ice. […] For IV dosing, ENDX PROTAC 9 was dissolved in 10% DMSO, 10% PEG 400, and 80% normal saline for a final concentration of 0.2 mg/mL ENDX PROTAC 9 for the 1 mg/kg IV doses. […] Plasma concentrations of ENDX PROTAC 7 and 9 were measured using UPLC-MS/MS.
readout kind: concentration at 0.5 h (ng/mL)
Your answer should be a plain number; it is taken to be in ng/mL.

Any idea what concentration at 0.5 h was measured for CCC(=C(c1ccc(O)cc1)c1ccc(OCCN(C)C(=O)COCCOCCNC(=O)Cc2ccc3c(c2)CN(C2CCC(=O)NC2=O)C3=O)cc1)c1ccccc1 (stereo not shown) [TC-Pr-009] ?
1.81
